Each entry below carries its reported Reduction [%].
- Tested on: spring barley, HORVS Montoya
- experiment summary: Safener seed treatment, post-emergence herbicide application, crop damage
- Type: in vivo
- condition notes: 10 DAT; HER dose 32 g a.i./ha; cloquintocet-mexyl 0, 5 g a.i./kg seed
Lab book: enter the figure in %, no units written.

// below: answered compounds
[
  {
    "compound": "C=CCOC(=O)C1CC(NC(=O)C2(C=C)CC(c3cc(C)cc(F)c3)=NO2)CO1 (mixture of isomers)",
    "subject of test": "spring barley, HORVS Montoya",
    "value units": "%",
    "Reduction [%]": 88
  },
  {
    "compound": "COC(=O)C1(C)CC(NC(=O)C2(C(C)(F)F)CC(c3cc(F)cc(F)c3)=NO2)CO1 (mixture of isomers)",
    "subject of test": "spring barley, HORVS Montoya",
    "value units": "%",
    "Reduction [%]": 89
  }
]

State, in one line, measured Reduction [%] of C=CC1(C(=O)NC2COC(C(=O)OCCOC)C2)CC(c2cc(C)cc(F)c2)=NO1 (mixture of isomers)
88

Give Reduction [%] for the following compound: COC(=O)C1COCC1NC(=O)C1(C)CC(c2cc(F)cc(F)c2)=NO1 (mixture of isomers)
78
